# target_entity: HDAC7 (Homo sapiens)
# Sequence (Q8WUI4 whole entry): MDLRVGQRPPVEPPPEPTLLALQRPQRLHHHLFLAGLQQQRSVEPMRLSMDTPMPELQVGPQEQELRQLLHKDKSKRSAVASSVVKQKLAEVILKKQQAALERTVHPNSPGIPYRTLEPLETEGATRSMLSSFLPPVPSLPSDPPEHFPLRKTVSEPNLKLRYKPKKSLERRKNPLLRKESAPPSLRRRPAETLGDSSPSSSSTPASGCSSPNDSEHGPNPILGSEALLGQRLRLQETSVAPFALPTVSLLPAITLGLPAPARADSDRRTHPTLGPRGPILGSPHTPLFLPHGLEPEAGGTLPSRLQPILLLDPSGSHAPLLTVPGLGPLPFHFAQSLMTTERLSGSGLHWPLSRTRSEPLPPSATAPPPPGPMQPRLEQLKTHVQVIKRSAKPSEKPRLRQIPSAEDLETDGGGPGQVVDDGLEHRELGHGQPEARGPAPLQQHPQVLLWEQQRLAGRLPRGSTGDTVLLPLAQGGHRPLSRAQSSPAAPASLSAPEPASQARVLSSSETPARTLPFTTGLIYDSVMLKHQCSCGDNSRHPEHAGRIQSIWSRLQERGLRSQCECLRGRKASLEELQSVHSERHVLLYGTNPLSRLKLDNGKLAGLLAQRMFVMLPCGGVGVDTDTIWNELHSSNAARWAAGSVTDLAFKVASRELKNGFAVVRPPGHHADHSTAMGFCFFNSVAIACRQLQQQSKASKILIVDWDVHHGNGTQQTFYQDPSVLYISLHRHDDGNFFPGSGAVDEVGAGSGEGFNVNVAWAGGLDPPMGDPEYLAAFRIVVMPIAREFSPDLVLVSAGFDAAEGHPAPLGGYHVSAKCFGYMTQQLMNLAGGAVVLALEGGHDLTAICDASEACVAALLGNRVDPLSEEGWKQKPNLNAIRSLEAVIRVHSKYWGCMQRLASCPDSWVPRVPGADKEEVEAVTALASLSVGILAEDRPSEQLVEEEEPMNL
readout_label: IC50
// return the numeric value with its unit appended

Task item: Can you look up the measured IC50 of COc1cc2cc(c1)C(=O)Nc1ccccc1NC(=O)[C@@H](CCCCCC(=O)NO)OC/C=C\2 for me?
Reply: 2.07 µM

----------
# target_entity: HDAC10 (Homo sapiens)
# Sequence (Q969S8 whole entry): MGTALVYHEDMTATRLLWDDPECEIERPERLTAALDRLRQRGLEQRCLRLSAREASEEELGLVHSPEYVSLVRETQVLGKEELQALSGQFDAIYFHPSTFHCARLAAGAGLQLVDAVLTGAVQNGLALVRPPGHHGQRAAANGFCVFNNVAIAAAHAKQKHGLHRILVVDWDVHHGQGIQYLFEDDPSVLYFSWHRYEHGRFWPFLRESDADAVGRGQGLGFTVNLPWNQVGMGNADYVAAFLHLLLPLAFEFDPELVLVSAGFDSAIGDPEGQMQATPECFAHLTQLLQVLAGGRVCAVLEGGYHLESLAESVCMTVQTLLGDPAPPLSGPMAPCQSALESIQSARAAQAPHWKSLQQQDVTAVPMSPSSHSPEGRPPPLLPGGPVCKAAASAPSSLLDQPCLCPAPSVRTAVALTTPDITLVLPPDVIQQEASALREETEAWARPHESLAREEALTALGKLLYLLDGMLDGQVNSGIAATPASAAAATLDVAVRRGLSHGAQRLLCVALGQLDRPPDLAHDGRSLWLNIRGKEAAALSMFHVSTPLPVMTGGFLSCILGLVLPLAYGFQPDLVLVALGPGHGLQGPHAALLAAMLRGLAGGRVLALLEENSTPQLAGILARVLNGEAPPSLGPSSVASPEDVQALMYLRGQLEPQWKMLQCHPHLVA
readout_label: IC50

Task item: Can you look up the measured IC50 of COc1cc2cc(c1)C(=O)Nc1ccccc1NC(=O)[C@@H](CCCCCC(=O)NO)OC/C=C\2 for me?
Reply: 1880 nM

----------
Target or system HDAC1 (Homo sapiens): recorded pIC50 listed per item.
One number for each entry, as −log10 of the molar value.

Task item: Recall the recorded pIC50 for COc1cc2cc(c1)C(=O)Nc1ccccc1NC(=O)[C@@H](CCCCCC(=O)NO)OC/C=C\2 [Example 2] with HDAC1 (Homo sapiens) and state it.
Sequence (Q13547 whole entry): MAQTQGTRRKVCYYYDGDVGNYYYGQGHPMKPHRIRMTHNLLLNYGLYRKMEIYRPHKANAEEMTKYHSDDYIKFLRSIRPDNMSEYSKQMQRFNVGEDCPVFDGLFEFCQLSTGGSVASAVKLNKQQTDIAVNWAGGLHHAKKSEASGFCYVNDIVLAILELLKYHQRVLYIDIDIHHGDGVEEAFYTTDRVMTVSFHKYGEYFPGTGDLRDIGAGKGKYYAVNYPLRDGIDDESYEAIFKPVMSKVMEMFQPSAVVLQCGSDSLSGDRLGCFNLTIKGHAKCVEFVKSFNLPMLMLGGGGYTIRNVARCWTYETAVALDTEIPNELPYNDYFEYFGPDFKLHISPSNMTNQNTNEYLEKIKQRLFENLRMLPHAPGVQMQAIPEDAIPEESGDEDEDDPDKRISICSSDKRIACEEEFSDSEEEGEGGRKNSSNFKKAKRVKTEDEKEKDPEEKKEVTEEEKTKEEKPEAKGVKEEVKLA
Reply: 5.87

Others:
Task item: Recall the recorded pIC50 for COc1cc2cc(c1)C(=O)Nc1ccccc1NC(=O)[C@H](CCCCCC(=O)NO)OC/C=C\2 [Example 1] with HDAC1 (Homo sapiens) and state it.
Reply: 6.06
